# System: L1210 leukemia ip in BDF1 mice, survival T/C
# METHOD DESCRIPTION: NCI In Vivo Anticancer Drug Screen. Data for tumor model L1210 Leukemia (intraperitoneal) in B6D2F1 (BDF1) mice
# TEST CONDITIONS: endpoint: mean survival time; dose: 25.0 mg/kg/injection; schedule: Q04DX002 (ip); vehicle: saline; higher = longer survival
Toxic doses and inconclusive results are not listed.
molecules and their reported T/C
OBSERVED PROPERTY: T/C

                                   molecule  observed_property          reported
0                      O=C1C=C(O)C(=O)C=C1O                T/C   94 % of control
1  CCCCC(N)P(=O)(O)O (configuration not stated)                T/C  110 % of control
2                                CC#CC(=O)O                T/C   95 % of control
3                  NC(=O)NNC(=O)C(Cl)(Cl)Cl                T/C  108 % of control
4                  C(=C\c1ccccc1)/CN1CCOCC1                T/C   94 % of control
5                                NCC1=NCCN1                T/C   93 % of control
6  CCN(CC)C(=S)N1C(=O)C2C3CCC(O3)C2C1=O (configuration not stated)                T/C  100 % of control

* * *

molecules and their reported T/C
# Tested on: L1210 leukemia ip in BDF1 mice, survival T/C
# METHOD DESCRIPTION: NCI In Vivo Anticancer Drug Screen. Data for tumor model L1210 Leukemia (intraperitoneal) in B6D2F1 (BDF1) mice
# TEST CONDITIONS: endpoint: mean survival time; dose: 200.0 mg/kg/injection; schedule: Q04DX003 (ip); vehicle: saline; higher = longer survival
Inconclusive results and toxic doses are left out.
OBSERVED PROPERTY: T/C

>>> df
                                    molecule  observed_property          reported
 0                  CCOC(=O)CCc1ccc(O)c(O)c1                T/C  111 % of control
 1  O=c1[nH]c(=O)n(C2CC=CO2)cc1F (centres undefined)                T/C  113 % of control
 2  CN(C)C(CC(=O)c1ccccc1)C(=O)O (centres undefined)                T/C   96 % of control
 3    C#CC(O)(/C=C\Cl)CC (centres undefined)                T/C  106 % of control
 4                     Cn1cnc2nn[nH]c(=O)c21                T/C   92 % of control
 5                        CN1C(=O)C=C(N)C1=O                T/C   94 % of control
 6               CCCCCCOC(=O)/C=C(/C)OCCCCCC                T/C   96 % of control
 7  NC(CSC(c1ccccc1)(c1ccccc1)c1ccc(C(=O)O)cc1)C(=O)O.[Ga] (centres undefined)                T/C   97 % of control
 8                          CN(C)C(=NN)N(C)C                T/C  100 % of control
 9                        CCOC(=O)c1csc(C)n1                T/C   96 % of control
10                           O=S(=O)(O)CCCCO                T/C  100 % of control
11  COc1ccc(C2c3cc4c(c(OC)c3CC3OCC(=O)C32)OCO4)cc1OC (centres undefined)                T/C  116 % of control
12         O=C(Nc1ccc(Cl)cc1)Oc1ccc2ccccc2c1                T/C   92 % of control
13  COC(=O)N1c2ccccc2C=CC1C#N (centres undefined)                T/C  111 % of control
14  O=C1C(n2ccc(=O)n(Cc3ccccc3)c2=O)CCN1CCO (centres undefined)                T/C  119 % of control
15       CC(=O)SCC(C)CCl (centres undefined)                T/C  107 % of control
16                        CCC(=O)P(=O)(OC)OC                T/C  102 % of control
17  O=C(O)C1C=CCC(C(=O)O)C1 (centres undefined)                T/C  108 % of control
18  COC(=O)C(C)NCc1ccccc1 (centres undefined)                T/C  107 % of control
19                     CCOC(=O)c1ncc2cnccn12                T/C  104 % of control
20    Cc1ccc(S(=O)(=O)C[n+]2cc(C)cc(C)c2)cc1                T/C  103 % of control
21  CCCCCC(=O)NCC(=O)N1CCC(C(=O)NCCCCC(=O)OC)C1 (centres undefined)                T/C   94 % of control
22    CCC(NC(C)=O)C(=O)O (centres undefined)                T/C   96 % of control
23           O=C1OC(=O)C23CCC(CC2)C2CCC13CC2                T/C  110 % of control
24                O=c1[nH]cc(CCCO)c(=O)[nH]1                T/C  100 % of control
25   Cc1cc(=O)[nH]c2c(O)ccc([N+](=O)[O-])c12                T/C  103 % of control
26      COC(=O)/C(=C\c1cccnc1)NC(=O)c1ccccc1                T/C   95 % of control
27  CC(C)C(C(=O)O)N(C)N=O (centres undefined)                T/C   94 % of control
28           O=C(O)CCCCCn1nnc2c(=O)[nH]cnc21                T/C  106 % of control

* * *

# Test system: L1210 leukemia ip in BDF1 mice, survival T/C
# METHOD DESCRIPTION: NCI In Vivo Anticancer Drug Screen. Data for tumor model L1210 Leukemia (intraperitoneal) in B6D2F1 (BDF1) mice
# TEST CONDITIONS: endpoint: mean survival time; dose: 10.0 mg/kg/injection; schedule: Q01DX001 (ip); vehicle: saline; higher = longer survival
Inconclusive results and toxic doses are left out.
molecules and their reported T/C
OBSERVED PROPERTY: T/C

>>> print(df.to_string())
                                   molecule          reported
0  CC1(C)CC(=O)C(C23C=CC2=C(CO)C(=O)OC3)C1 (configuration not stated)   96 % of control
1             CC(C)=CCNC12CC3CC(CC(C3)C1)C2  106 % of control
2  BrP(Nc1cccc(NP(Br)(c2ccccc2)(c2ccccc2)c2ccccc2)c1)(c1ccccc1)(c1ccccc1)c1ccccc1   99 % of control
3                     CCCCC[As](=O)(O)CCCCC  106 % of control
4  CCC[CH2][Sn]1([CH2]CCC)[O]C(=O)C2C(C=C(C)C)C=C(C)C(C)C2C(=O)[O]1 (configuration not stated)  104 % of control
5      C=CC[P+](c1ccccc1)(c1ccccc1)c1ccccc1   98 % of control
6             O=[N+]([O-])c1c(Cl)nc2ccccn12   98 % of control

* * *

compounds and their reported T/C
# Test system: L1210 leukemia ip in BDF1 mice, survival T/C
# METHOD DESCRIPTION: NCI In Vivo Anticancer Drug Screen. Data for tumor model L1210 Leukemia (intraperitoneal) in B6D2F1 (BDF1) mice
# TEST CONDITIONS: endpoint: mean survival time; dose: 100.0 mg/kg/injection; schedule: Q04DX003 (ip); vehicle: saline; higher = longer survival
Inconclusive results and toxic doses are left out.
OBSERVED PROPERTY: T/C

>>> print(df.to_string())
                                    compound          reported
 0  CC#CCOCC1CN(C)C(=O)O1 (centres undefined)  101 % of control
 1  O=C(O)c1ccc(NCc2cc(=O)[nH]c(=O)[nH]2)cc1  101 % of control
 2      COC(=O)/C(=C\c1cccnc1)NC(=O)c1ccccc1   97 % of control
 3                               C=CCNC(C)=O   98 % of control
 4             Cc1nc(C)c2c(c1C)-c1ccccc1C2=O  102 % of control
 5  COC(=O)CC1C(=O)C(C)(C(=O)OC)CCC1c1ccc(OC)cc1 (centres undefined)  100 % of control
 6  CC(C)N1CCOC1c1ccccc1 (centres undefined)  100 % of control
 7  COc1ccc(C2c3cc4c(c(OC)c3CC3OCC(=O)C32)OCO4)cc1OC (centres undefined)  116 % of control
 8                             Cn1cc[nH]c1=S   98 % of control
 9  CCC(=O)NCC1(c2ccccc2)CCN(CC2COc3ccccc3O2)CC1 (centres undefined)  102 % of control
10                                 CCOCN(C)C  105 % of control
11                       CCCCC(CCCC)c1ccccn1   97 % of control
12               NCCCOc1ccc([N+](=O)[O-])cc1  114 % of control
13  O=C(Nc1ccccc1)C(Br)c1ccccc1 (centres undefined)   91 % of control
